Hey, just so you know, these numbers are from the kinase profiling compilation of Christmann-Franck et al. (2016).

# System: SGK1 (human), O00141 [S422D]
# Sequence (O00141 whole entry S422D, looked up): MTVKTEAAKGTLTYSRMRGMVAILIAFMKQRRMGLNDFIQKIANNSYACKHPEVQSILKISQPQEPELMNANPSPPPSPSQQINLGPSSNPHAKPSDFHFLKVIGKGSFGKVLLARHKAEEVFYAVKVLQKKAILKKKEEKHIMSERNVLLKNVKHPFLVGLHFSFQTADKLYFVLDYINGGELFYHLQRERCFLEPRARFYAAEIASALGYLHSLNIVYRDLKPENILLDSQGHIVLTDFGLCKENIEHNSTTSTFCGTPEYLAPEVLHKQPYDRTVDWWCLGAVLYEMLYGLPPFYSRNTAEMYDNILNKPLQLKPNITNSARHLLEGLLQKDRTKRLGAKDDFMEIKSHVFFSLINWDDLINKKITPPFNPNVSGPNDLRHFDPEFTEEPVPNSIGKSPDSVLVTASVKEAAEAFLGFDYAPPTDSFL
# ASSAY REMARKS: radiometric filter-binding kinase assay
# EXPERIMENTAL CONTEXT: compound 10.0 µM
# Lookup of reported residual activity keyed by entry

MOLECULE	UNIT NAME	residual activity
CCc1cncnc1N1CCN(Cc2nc3cc(C(F)(F)F)ccc3[nH]2)CC1	%	65
Cc1ccc2c(c1)C(=O)[C@@]1(O)CCN(c3ccccc3)C1=N2	%	101
NCC(=O)Nc1ccc(-n2nc(C(F)(F)F)cc2-c2ccc3c(ccc4ccccc43)c2)cc1	%	30
O=C(NOC[C@H](O)CO)c1ccc(F)c(F)c1Nc1ccc(I)cc1Cl	%	74
CCCCCc1ccc(/C=C/[C@H](O)[C@@H](CO)NC)cc1	%	78
CCCC(CCC)C(=O)O	%	98
NC(=O)c1cc(-c2ccnc(NC3CCCCC3)c2)nc(N2CCNCC2)c1	%	90
Cc1ccc(=O)n(-c2ccccc2)c1	%	100
CC(C)C[C@H](NC(=O)CNC(=O)c1cc(Cl)ccc1Cl)B1OC(=O)CC(CC(=O)O)(C(=O)O)O1 (stereo not given in full)	%	78
NS(=O)(=O)OC[C@@H]1C[C@@H](n2ccc3c(N[C@H]4CCc5ccccc54)ncnc32)C[C@@H]1O	%	112

====

# TARGET ENTITY: MKNK2 (human) (UniProt Q9HBH9)
# Sequence (Q9HBH9 whole entry, looked up): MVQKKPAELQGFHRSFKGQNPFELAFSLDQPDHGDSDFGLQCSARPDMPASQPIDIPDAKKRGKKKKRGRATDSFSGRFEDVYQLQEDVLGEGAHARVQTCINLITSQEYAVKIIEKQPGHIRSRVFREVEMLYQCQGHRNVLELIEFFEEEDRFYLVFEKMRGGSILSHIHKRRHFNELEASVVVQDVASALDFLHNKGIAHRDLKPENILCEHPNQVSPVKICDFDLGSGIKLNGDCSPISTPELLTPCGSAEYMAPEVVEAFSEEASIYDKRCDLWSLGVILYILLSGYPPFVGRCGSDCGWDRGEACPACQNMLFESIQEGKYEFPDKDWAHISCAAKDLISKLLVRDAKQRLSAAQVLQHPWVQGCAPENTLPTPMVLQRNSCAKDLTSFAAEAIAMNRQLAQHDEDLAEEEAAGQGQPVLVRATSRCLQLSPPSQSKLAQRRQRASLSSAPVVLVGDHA
# ASSAY REMARKS: radiometric filter-binding kinase assay
# EXPERIMENTAL CONTEXT: compound 10.0 µM
READOUT LABEL: residual activity (%)

MOL SMILES	TARGET ENTITY	READOUT LABEL	OBSERVED RESULT
O=C(O)c1cc(N=Nc2ccc(S(=O)(=O)Nc3ccccn3)cc2)ccc1O	MKNK2 (human) (UniProt Q9HBH9)	residual activity	99
NC(=O)c1cc2c(-c3cccc(-c4ccccc4)c3)cnc(N)c2s1	MKNK2 (human) (UniProt Q9HBH9)	residual activity	66
COc1cc2ncn(-c3cc(OCc4ccccc4S(C)(=O)=O)c(C#N)s3)c2cc1OC	MKNK2 (human) (UniProt Q9HBH9)	residual activity	35
O=C(O)c1ccc(-c2c[nH]c3ncc(-c4ccccc4)cc23)cc1C1CCCC1	MKNK2 (human) (UniProt Q9HBH9)	residual activity	4
C[C@H]1CCCC(=O)CCC/C=C/c2cc(O)cc(O)c2C(=O)O1	MKNK2 (human) (UniProt Q9HBH9)	residual activity	23

====

# Lookup of reported residual activity keyed by entry
# TARGET ENTITY: UniProt:Q9P1W9
# Sequence (Q9P1W9 whole entry, looked up): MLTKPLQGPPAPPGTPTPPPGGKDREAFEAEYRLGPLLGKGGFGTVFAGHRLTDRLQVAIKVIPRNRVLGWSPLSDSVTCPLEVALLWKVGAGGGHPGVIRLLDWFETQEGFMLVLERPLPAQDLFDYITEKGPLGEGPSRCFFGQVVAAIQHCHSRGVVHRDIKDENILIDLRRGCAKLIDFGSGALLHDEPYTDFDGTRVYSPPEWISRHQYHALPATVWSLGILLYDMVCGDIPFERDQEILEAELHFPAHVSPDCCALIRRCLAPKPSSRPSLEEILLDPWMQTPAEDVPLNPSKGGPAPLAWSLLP
# ASSAY REMARKS: radiometric filter-binding kinase assay
# EXPERIMENTAL CONTEXT: compound 0.01 µM
READOUT LABEL: residual activity (%)

MOLECULE	UNIT NAME	OBSERVED RESULT
O=C(Nc1nc2cc(C(F)(F)F)cc(NC3CC3)n2n1)c1cccnc1	%	106
COc1cc(O)c2c(c1)[C@H]1OC1C[C@H](O)[C@H](O)C(=O)/C=C\C[C@H](C)OC2=O (stereo not given in full)	%	93
CNc1nc(-c2ccc3c(N)n[nH]c3c2)cc(N2C[C@@H](C(=O)NC3CCCCC3)CC[C@H]2C)n1	%	97
C/C(=C1/C(=O)Nc2ccc(NC(N)=O)cc21)c1ccc[nH]1	%	92
CNC(=O)C1[C@H]2O[C@@](C)([C@@H]1N)n1c3ccccc3c3c4c(c5c6ccccc6n2c5c31)C(=O)NC4 (stereo not given in full)	%	93
